# Tested on: 349418-098-R-PDC complex spheroid viability
# Assay Procedure: Anticancer human tumor 349418-098-R-PDC patient-derived lung adenocarcinoma cell line growth inhibition [RAS]; active means viability on the fitted dose curve at most 10% of control; inactive means the rest
# Setup Conditions: second compound 1 µM; first compound 0.00949 µM
# From the text: RAS pathway inhibitors in Combinations in Complex Spheroids A high-throughput screen of multi-cell type tumor spheroids was designed to identify active combinations of RAS pathway inhibitors and targeted small molecules. Complex spheroids include a stromal component modeled by human endothelial cells (HUVEC) and fibroblasts modeled by human mesenchymal stem cells (MSCs). […] Compounds. […] If the clinical Cmax for an agent had not been determined, the highest concentration tested was 10 microM. […]
Mark one answer only. Choices: active, inactive

Consider the worked cases shown below.
Molecule | Label Class
CC1(C)CCC(Nc2ncc(C(F)(F)F)c(-c3c[nH]c4c(P(C)(C)=O)c(C#N)ccc34)n2)CN1 (centres undefined) + C#Cc1c(F)ccc2cc(O)cc(-c3ncc4c(N5CC6CCC(C5)N6)nc(OCC56CCCN5CC(F)C6)nc4c3F)c12 | inactive
CCc1c2c(nc3ccc(O)cc13)-c1cc3c(c(=O)n1C2)COC(=O)[C@]3(O)CC + C=CC(=O)N1CCN(c2nc(OCC3CCCN3C)nc3c(F)c(-c4nc(N)cc(C)c4C(F)(F)F)c(Cl)cc23)C(C)C1 | active
CC1(C)CCC(Nc2ncc(C(F)(F)F)c(-c3c[nH]c4c(P(C)(C)=O)c(C#N)ccc34)n2)CN1 (centres undefined) + C=CC(=O)N1CCN(c2nc(OCC3CCCN3C)nc3c(F)c(-c4nc(N)cc(C)c4C(F)(F)F)c(Cl)cc23)C(C)C1 | inactive

Pending molecule:
Ask: Lab log entry: CCc1c2c(nc3ccc(O)cc13)-c1cc3c(c(=O)n1C2)COC(=O)[C@]3(O)CC + C#Cc1c(F)ccc2cc(O)cc(-c3ncc4c(N5CC6CCC(C5)N6)nc(OCC56CCCN5CC(F)C6)nc4c3F)c12 — outcome as called in the assay?
Reply: inactive

----------
Listed compounds paired with reported viability, T/C
# Tested on: 349418-098-R-PDC complex spheroid viability
# Assay Procedure: Anticancer human tumor 349418-098-R-PDC cell line growth inhibition [RAS];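 further: spheroids exposed to compound for seven days before viability readout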
# Setup Conditions: second compound 3.16 µM; first compound 0.1 µM; active compounds read low

// worked examples, viability, T/C included
Compound | Property Label | Endpoint Value
CC(Nc1ccc2c(c1)OCCn1cc(N3C(=O)OCC3C(F)F)nc1-2)C(N)=O (centres undefined) + C#Cc1c(F)ccc2cc(O)cc(-c3ncc4c(N5CC6CCC(C5)N6)nc(OCC56CCCN5CC(F)C6)nc4c3F)c12 | viability, T/C | 42.7%
NC1c2ccccc2OC12CCN(c1cnc3c(N4CCCc5ncccc54)n[nH]c3n1)CC2 (centres undefined) + C#Cc1c(F)ccc2cc(O)cc(-c3ncc4c(N5CC6CCC(C5)N6)nc(OCC56CCCN5CC(F)C6)nc4c3F)c12 | viability, T/C | 90.4%
C[C@@H](NC(=O)c1ncnc(N)c1Cl)c1ncc(C(=O)Nc2cc(C(F)(F)F)c(Cl)cn2)s1 + C#Cc1c(F)ccc2cc(O)cc(-c3ncc4c(N5CC6CCC(C5)N6)nc(OCC56CCCN5CC(F)C6)nc4c3F)c12 | viability, T/C | 92.8%

Now for a further compound.
Ask: Name the recorded viability, T/C for CC1(O)CCCC1n1c(=O)c(C(F)F)cc2cnc(NC3CCN(S(C)(=O)=O)CC3)nc21 (centres undefined) + C#Cc1c(F)ccc2cc(O)cc(-c3ncc4c(N5CC6CCC(C5)N6)nc(OCC56CCCN5CC(F)C6)nc4c3F)c12 .
Reply: 41.9%
